Recorded values, source the supplement of paper PMC7724964.

- studyTarget: T1, RXRB 298-533 Hormone_recep (domain begin residue: 298, domain end residue: 533), P28702
- T1 chain: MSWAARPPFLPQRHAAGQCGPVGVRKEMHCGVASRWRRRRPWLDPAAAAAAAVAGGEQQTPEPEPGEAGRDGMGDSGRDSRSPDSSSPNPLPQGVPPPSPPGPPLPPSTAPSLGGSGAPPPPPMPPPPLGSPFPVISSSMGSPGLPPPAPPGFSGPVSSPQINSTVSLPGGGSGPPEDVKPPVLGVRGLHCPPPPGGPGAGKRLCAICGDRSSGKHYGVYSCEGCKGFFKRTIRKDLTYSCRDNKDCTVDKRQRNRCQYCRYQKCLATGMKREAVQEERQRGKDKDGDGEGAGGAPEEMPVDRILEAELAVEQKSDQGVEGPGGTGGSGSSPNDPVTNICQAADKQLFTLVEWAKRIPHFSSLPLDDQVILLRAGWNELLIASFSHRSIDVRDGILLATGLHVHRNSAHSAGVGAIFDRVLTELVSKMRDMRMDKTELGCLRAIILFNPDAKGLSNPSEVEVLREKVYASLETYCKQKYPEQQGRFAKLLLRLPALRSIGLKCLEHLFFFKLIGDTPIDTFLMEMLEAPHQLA
- testName: phage ELISA signal ratio (GST-PRM binding over GST background); higher = stronger binding of peptide-phage to the PRM

{"binder": "YPEHQWLEQHMFQTVQ", "phage ELISA signal ratio": 14.3}
{"binder": "IEQAELIWMEYKKQTK", "phage ELISA signal ratio": 6.73}
{"binder": "ESNEMWEWVMNQAHVW", "phage ELISA signal ratio": 11.2}
{"binder": "LDHMNWPEHDWLWATM", "phage ELISA signal ratio": 16.1}
{"binder": "TPTDTAESIWEMYKKM", "phage ELISA signal ratio": 28}
